Ref: patent US20240000957A1

target: T1, Human EphA2 (Ecto), C-terminal polyHis (Human, UniProt P29317 24-537); experiment: FP competition vs Reference Compound C
T1 construct: extracellular domain; R&D systems 3035-A2 or in-house
T1 sequence (P29317 24-537): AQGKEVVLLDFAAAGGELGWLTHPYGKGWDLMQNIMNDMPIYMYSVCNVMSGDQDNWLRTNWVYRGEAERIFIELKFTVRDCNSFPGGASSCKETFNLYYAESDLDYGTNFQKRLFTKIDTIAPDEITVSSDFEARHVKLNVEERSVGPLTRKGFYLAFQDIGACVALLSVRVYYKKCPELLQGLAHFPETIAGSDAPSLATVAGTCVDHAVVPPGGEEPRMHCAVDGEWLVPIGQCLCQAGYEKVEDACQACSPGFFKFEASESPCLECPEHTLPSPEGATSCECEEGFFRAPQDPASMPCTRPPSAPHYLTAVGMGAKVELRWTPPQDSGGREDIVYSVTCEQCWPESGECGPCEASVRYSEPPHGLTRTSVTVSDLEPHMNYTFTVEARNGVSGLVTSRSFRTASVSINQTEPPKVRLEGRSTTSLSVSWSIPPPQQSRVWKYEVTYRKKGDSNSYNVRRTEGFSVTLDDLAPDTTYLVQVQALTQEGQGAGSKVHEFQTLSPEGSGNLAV
pKi: −log10 of the molar value. *1 amine or outer side, *2 acyl side, *3 side chain or, on linkers, in order; H or OH if unused. Bridges are numbered along the chain shown (N, C = ends). Where no end group is shown, it is not given here. TATA = O=C(CC[*:1])N1CN(C(=O)CC[*:2])CN(C(=O)CC[*:3])C1
Rule: pKi of 8 or more gives Criterion met; anything lower gives Criterion not met.

binder: ACGFMGLEPCEMYCA (linker 2-10-14 via TATA; not fully specified (C-terminus)) [Compound 50]
group: Criterion not met

Is pKi at least 8? Consider ACPLVNPLCLHPGWSCRGQ (linker 2-9-16 via TATA, also called Compound 87) [BCY6026]
Criterion met

Is pKi at least 8? Consider Ac-CPLVNPLCLHPGWTCLHG (linker 1-8-15 via TATA; not fully specified (C-terminus); printed as Ac-CPLVNPLCLHPGWTCLHG) [Compound 74]
Criterion met

Is pKi at least 8? Consider AXDCPLVNPLCLHPGWTCA (not fully specified; N-terminal Ac; HArg; C-terminal -Sar6-(D-K); TATA scaffold on the 3 Cys) [Compound 69]
Criterion not met

Is pKi at least 8? Consider ACPMVNPLCLHPGWTCA (linker 2-9-16 via TATA) [Compound 97]
Criterion not met

Is pKi at least 8? Consider ACRNWGMYCAYPDTICA (linker 2-9-16 via TATA; not fully specified (C-terminus)) [Compound 35]
Criterion not met

Is pKi at least 8? Consider ACPLVNPLCMIGNWTCA (linker 2-9-16 via TATA; not fully specified (C-terminus)) [Compound 60]
Criterion not met

Is pKi at least 8? Consider ACVPDRRCAFMNVCEDR (linker 2-8-14 via TATA; not fully specified (C-terminus)) [Compound 26]
Criterion not met

Is pKi at least 8? Consider CPLVNPLCLHPGWTCLHG (N-terminal Ac; C-terminal -Sar6-(D-K); TATA scaffold on the 3 Cys, also called Compound 77) [BCY6019]
Criterion met
